Quick list: logP at 30 min per entry.
experiment: physchem; assay type: physicochemical; details: n-octanol/deionized water, shake flask, 25 °C, 1 × 10^−4 M, read-out: logP, experimentally obtained
// response body must contain only the number

O=c1c(O)c(-c2ccc(O)c(O)c2)oc2c(CN3CCc4ccccc4C3)c(O)cc(O)c12 : 3.07

Please turn your attention to the following entry.
The molecule listed as COc1cc2c(cc1OC)CN(Cc1c(O)cc(O)c3c(=O)c(O)c(-c4ccc(O)c(O)c4)oc13)CC2 shows logP at 30 min equal to 2.47

====

test system: HeLa cells; assay: SRB assay, HeLa cells; type: cell-based; conditions: Homo sapiens, HeLa; 72 h after treatment, SRB; read-out: IC50 HeLa
reported metric: IC50 (µM)
Note: unit µM is implicit; provide only the numeric part.

O=c1c(O)c(-c2ccc(O)c(O)c2)oc2c(CN3CCc4ccccc4C3)c(O)cc(O)c12 : 53.5

Please turn your attention to the following entry.
The molecule listed as COc1cc2c(cc1OC)CN(Cc1c(O)cc(O)c3c(=O)c(O)c(-c4ccc(O)c(O)c4)oc13)CC2 shows IC50 equal to 19.5

====

system: MDA-MB-468 cells; experiment: SRB assay, MDA-MB-468 cells; type: cell-based, human; details: Homo sapiens, MDA-MB-468, 72 h, read-out: IC50 MDA-468
reported metric: IC50

The molecule listed as O=c1c(O)c(-c2ccc(O)c(O)c2)oc2cc(O)cc(O)c12 [Quercetin, reference compound] shows IC50 equal to 65.9 µM

====

experiment: physchem; type: physicochemical; details: shake flask, n-octanol/water, 25 °C, 1 × 10^−4 M; read-out: logP, experimentally obtained
Quick list: logP at 30 min per entry.
// response body must contain only the number

COc1cc2c(cc1OC)CNCC2 [Compound 1b, reference compound] : 1.14

Please turn your attention to the following entry.
The compound listed as c1ccc2c(c1)CCNC2 [Compound 1a, 1,2,3,4-tetrahydroisoquinoline, reference compound] shows logP at 30 min equal to 1.4

====

molecular target: eqBuChE (Equus caballus, UniProt P81908); assay: BuChE inhibition (Ellman's procedure); format: biochemical; conditions: 37 °C; read-out: IC50 BChE
Sequence (P81908 whole entry): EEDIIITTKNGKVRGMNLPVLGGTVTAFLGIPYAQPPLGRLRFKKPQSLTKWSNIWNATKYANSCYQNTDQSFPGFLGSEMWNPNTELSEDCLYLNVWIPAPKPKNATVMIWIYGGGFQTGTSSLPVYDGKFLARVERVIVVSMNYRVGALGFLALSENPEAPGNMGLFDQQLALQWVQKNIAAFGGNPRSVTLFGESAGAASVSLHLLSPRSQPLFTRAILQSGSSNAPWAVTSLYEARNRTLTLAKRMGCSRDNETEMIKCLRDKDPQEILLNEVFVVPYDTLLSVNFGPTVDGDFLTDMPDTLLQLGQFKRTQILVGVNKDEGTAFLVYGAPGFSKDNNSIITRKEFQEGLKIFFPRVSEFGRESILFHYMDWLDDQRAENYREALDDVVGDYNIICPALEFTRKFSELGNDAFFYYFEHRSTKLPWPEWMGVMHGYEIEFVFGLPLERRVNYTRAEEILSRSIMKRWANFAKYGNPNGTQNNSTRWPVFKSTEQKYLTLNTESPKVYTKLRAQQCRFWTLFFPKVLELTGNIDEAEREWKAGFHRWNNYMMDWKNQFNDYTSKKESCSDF
Quick list: IC50 per entry.
Note: unit µM is implicit; provide only the numeric part.

O=c1c(O)c(-c2ccc(O)c(O)c2)oc2c(CN3CCc4ccccc4C3)c(O)cc(O)c12 : 16.9

Please turn your attention to the following entry.
The compound listed as COc1cc2c(cc1OC)CN(Cc1c(O)cc(O)c3c(=O)c(O)c(-c4ccc(O)c(O)c4)oc13)CC2 shows IC50 equal to 41.1

The origin of these recorded values is paper PMC12068008.
